experimentalSystem: PI3Kα^WT (p110α/p85α) (Homo sapiens)
Sequence (P42336 whole entry, one chain of several): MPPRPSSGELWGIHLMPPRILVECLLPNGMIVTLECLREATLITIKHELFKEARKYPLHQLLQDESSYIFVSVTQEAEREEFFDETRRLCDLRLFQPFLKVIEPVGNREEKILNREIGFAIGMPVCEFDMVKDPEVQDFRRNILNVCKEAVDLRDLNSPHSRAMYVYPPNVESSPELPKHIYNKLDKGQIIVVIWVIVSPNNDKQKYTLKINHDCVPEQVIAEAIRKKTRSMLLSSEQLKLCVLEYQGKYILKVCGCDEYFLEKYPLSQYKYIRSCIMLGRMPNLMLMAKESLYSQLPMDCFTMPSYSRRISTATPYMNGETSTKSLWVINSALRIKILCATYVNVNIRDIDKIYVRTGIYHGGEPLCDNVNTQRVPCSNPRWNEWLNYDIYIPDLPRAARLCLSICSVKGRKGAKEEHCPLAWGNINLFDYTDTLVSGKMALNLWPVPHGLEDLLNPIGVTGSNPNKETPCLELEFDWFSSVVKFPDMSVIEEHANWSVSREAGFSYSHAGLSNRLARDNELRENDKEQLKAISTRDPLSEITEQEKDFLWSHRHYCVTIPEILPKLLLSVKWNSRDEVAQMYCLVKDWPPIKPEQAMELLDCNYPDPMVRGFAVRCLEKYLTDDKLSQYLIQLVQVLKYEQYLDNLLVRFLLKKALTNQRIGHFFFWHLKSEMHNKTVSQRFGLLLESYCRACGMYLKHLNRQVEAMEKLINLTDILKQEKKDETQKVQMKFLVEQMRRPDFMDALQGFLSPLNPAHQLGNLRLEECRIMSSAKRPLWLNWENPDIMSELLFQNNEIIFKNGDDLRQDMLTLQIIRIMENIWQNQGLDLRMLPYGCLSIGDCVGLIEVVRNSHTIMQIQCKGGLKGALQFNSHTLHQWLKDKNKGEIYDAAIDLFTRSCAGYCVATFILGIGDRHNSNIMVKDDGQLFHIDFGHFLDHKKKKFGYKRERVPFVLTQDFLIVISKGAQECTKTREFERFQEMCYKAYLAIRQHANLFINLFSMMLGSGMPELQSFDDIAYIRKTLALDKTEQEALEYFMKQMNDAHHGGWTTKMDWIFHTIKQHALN
experimentSummary: PI3K homogenous time-resolved fluorescence (HTRF) lipid kinase IC50 determination
runConditions: HTRF assay using PIP2 as substrate; Mean ± SD, n=2; enzyme 40 ng/ml; read-out: IC50 PI3Kα (Table S3)
pIC50: −log10 of the molar value.
measuredParameter: pIC50

> print(dat)
                                   compound                    experimentalsystem  measuredparameter  resultnumber
1  COc1ncc(-c2ccc(-c3cnc4c(c3)CN(C)C4=O)s2)cc1NS(=O)(=O)c1ccc(F)cc1F [compound 7]  PI3Kα^WT (p110α/p85α) (Homo sapiens)              pIC50          4.77
2  COc1ncc(-c2ccc3cccc(-c4ccnnc4)c3c2)cc1NS(=O)(=O)c1ccc(F)cc1F [compound 6]  PI3Kα^WT (p110α/p85α) (Homo sapiens)              pIC50          6.34

###

experimentalSystem: PI3Kβ^WT (p110β/p85α) (Homo sapiens, UniProt P42338)
Construct: made in house; host or cells: Sf9 insect cells (baculovirus)
Sequence (P42338 whole entry, species assumed, one chain of several): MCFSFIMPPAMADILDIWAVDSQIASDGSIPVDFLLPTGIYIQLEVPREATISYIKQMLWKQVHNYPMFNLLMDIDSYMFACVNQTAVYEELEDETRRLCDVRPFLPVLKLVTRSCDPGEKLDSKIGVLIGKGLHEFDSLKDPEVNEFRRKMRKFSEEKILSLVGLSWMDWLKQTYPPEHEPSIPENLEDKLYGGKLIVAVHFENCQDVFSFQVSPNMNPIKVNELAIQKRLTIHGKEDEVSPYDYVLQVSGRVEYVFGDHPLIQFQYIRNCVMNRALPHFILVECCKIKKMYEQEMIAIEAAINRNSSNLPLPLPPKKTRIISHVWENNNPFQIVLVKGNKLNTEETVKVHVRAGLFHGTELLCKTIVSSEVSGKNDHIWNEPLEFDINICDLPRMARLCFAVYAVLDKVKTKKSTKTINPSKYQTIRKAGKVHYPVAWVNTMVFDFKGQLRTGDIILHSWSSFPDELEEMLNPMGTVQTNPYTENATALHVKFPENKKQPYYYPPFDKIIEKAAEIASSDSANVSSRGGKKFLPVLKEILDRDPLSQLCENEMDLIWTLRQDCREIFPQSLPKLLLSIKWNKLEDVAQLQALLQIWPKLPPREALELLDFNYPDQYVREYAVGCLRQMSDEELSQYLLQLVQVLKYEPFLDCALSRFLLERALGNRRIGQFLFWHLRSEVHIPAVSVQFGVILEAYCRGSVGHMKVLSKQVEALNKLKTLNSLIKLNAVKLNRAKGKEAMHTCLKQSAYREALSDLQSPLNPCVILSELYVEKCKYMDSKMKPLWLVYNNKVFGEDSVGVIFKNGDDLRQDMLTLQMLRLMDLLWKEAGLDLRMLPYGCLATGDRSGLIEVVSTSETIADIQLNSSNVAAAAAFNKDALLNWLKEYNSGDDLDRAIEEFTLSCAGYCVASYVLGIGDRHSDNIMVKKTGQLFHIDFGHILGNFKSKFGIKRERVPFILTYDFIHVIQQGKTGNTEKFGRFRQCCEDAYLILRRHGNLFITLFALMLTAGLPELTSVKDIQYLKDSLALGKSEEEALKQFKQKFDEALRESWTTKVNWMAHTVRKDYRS
experimentSummary: PI3K HTRF lipid kinase IC50 determination
Format: biochemical
runConditions: HTRF assay using PIP2 as substrate; Mean ± SD, n=2; enzyme 400 or 300 ng/ml; read-out: IC50 PI3K (second column of Table S3, probably PI3Kβ)
measuredParameter: IC50 (µM)

> print(dat)
                             chemicalsmiles  resultnumber
1  COc1ncc(-c2ccc(-c3cnc4c(c3)CN(C)C4=O)s2)cc1NS(=O)(=O)c1ccc(F)cc1F           242

###

experimentalSystem: PI3Kδ^WT (p110δ/p85α) (Homo sapiens, UniProt O00329)
Construct: made in house; host or cells: Sf9 insect cells (baculovirus)
Sequence (O00329 whole entry, species assumed): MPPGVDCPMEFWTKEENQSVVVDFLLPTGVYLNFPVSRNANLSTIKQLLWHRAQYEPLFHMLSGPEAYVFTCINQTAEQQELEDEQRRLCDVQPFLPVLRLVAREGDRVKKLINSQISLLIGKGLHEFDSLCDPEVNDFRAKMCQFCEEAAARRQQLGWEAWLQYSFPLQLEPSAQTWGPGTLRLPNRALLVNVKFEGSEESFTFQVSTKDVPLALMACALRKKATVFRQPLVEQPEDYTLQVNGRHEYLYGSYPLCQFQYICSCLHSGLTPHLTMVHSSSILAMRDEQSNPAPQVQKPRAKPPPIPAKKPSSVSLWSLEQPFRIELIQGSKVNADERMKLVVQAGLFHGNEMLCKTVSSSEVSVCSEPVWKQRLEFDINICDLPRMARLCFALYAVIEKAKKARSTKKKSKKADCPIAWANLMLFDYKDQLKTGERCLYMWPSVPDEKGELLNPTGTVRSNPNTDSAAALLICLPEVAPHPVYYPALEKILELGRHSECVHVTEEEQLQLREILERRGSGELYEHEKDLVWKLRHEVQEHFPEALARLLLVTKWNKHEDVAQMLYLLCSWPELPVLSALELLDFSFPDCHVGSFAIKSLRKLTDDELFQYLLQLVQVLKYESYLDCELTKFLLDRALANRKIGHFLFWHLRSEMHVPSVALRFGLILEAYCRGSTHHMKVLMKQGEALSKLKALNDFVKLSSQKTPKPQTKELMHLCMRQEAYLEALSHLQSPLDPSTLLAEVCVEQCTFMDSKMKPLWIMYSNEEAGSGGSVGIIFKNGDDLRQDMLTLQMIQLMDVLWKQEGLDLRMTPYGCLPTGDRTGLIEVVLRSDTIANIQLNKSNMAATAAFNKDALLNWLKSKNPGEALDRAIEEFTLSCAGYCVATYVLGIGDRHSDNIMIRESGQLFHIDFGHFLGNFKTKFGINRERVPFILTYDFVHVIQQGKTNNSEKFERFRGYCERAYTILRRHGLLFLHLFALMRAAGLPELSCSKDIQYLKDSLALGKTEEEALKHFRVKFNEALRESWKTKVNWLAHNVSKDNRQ
Sequence (P27986 whole entry partner, species assumed): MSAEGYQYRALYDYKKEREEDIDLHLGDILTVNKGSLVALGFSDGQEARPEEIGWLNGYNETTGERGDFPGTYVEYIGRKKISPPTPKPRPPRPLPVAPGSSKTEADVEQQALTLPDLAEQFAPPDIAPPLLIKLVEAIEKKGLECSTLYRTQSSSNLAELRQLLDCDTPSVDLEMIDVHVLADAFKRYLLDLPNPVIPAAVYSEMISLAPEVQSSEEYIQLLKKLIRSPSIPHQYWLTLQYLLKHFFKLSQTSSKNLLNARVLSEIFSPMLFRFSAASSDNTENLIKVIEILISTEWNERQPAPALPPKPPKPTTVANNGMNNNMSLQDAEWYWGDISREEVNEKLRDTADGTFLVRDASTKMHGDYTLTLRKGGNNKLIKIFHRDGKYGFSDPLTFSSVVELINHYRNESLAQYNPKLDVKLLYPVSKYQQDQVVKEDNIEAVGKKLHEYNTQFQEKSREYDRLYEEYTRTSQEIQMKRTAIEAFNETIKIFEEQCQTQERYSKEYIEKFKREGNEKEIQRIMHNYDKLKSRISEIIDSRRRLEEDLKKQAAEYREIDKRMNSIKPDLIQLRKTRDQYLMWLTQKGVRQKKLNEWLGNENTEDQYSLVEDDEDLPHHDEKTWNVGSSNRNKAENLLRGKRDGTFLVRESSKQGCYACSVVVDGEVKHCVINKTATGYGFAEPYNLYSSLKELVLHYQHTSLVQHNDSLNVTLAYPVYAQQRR
experimentSummary: PI3K HTRF lipid kinase IC50 determination
Assay type: biochemical
runConditions: HTRF assay using PIP2 as substrate; Mean ± SD, n=2; enzyme 65 ng/ml; read-out: IC50 PI3K (third column of Table S3, probably PI3Kδ)
pIC50: −log10 of the molar value.
measuredParameter: pIC50

> print(dat)
                             chemicalsmiles                        experimentalsystem  resultnumber
1  COc1ncc(-c2ccc(-c3cnc4c(c3)CN(C)C4=O)s2)cc1NS(=O)(=O)c1ccc(F)cc1F  PI3Kδ^WT (p110δ/p85α) (Homo sapiens, UniProt O00329)          5.07
